Numbers sourced from ChEMBL document CHEMBL1153325.

Entries and their Efficacy values follow.
# assaySystem: Cannabinoid receptor 2 (Homo sapiens)
# Sequence (P34972 whole entry): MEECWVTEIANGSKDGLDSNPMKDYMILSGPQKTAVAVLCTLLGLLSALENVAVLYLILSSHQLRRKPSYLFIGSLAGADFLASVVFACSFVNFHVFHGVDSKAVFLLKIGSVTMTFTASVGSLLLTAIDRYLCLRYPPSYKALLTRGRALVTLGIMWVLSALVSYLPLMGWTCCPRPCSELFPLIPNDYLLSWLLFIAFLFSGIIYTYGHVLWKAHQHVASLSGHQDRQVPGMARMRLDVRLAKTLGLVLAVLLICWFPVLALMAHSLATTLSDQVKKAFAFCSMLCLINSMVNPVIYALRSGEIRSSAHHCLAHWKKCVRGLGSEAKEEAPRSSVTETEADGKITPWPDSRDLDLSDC
# testMethodNotes: Agonist activity at human CB2 receptor expressed in CHO cells assessed as inhibition of forskolin-induced cAMP release relative to CP-55940
# Type: functional, cell-based
Answer with a number only, understood to be in %.

Answered examples (4):
In [3]: df
Out[3]:
                                inputsmiles                            assaysystem  endpointlabel  experimentalresult
0  Clc1cccc(-c2ccc(CN3CCO[C@@H](c4ccccc4)C3)cc2)c1Cl  Cannabinoid receptor 2 (Homo sapiens)       Efficacy                  77
1  c1ccc(Oc2ccc(CN3CCO[C@@H](c4ccccc4)C3)cc2)cc1  Cannabinoid receptor 2 (Homo sapiens)       Efficacy                 100
2  Clc1ccccc1Nc1ccc(CN2CCO[C@@H](c3ccccc3)C2)cn1  Cannabinoid receptor 2 (Homo sapiens)       Efficacy                  80
3  N#Cc1ccccc1-c1ccc(CN2CCO[C@@H](c3ccccc3)C2)cc1  Cannabinoid receptor 2 (Homo sapiens)       Efficacy                  56

Here's the next entry for you.
Req: GET /values?readout=Efficacy&item= FC(F)(F)c1ccccc1-c1ccc(CN2CCO[C@@H](c3ccccc3)C2)cc1
Resp: 50
